procedure-details: NCI Yeast Anticancer Drug Screen. Data for the rad50 strain (AID 155)
assay-setup: S. cerevisiae rad50 strain growth inhibition; at 50.0 µM
About 79,000 compounds went through this panel and 15% of them were active in at least one assay; those are over-represented in the sample as a whole. The source made the active and inactive calls. Rule as the data show it: active = growth inhibition above about 70%; inactive = the rest.
Log the outcome using a class from active, inactive

Tell me the assay call for C[SH+]c1ccccc1N=Cc1ccccn1.C[SH+]c1ccccc1N=Cc1ccccn1.[Ni+2].[O-][Cl+3]([O-])([O-])[O-] please.
active

Tell me the assay call for CCOC(=O)C(Cc1ccc(N(CCCl)CCCl)cc1)NC(=O)CNC(C)=O (centres undefined) please.
inactive

Tell me the assay call for CC(Cl)C(=O)OC(C)(C)Cl (centres undefined) please.
inactive

Tell me the assay call for Cc1ccc(O)cc1 please.
inactive

Tell me the assay call for O=C1/C(=C\c2cc3ccccc3c3ccccc23)N2CCC1CC2 please.
inactive
